- tested-target: UniProtKB P25099
- Sequence (P25099 1-326): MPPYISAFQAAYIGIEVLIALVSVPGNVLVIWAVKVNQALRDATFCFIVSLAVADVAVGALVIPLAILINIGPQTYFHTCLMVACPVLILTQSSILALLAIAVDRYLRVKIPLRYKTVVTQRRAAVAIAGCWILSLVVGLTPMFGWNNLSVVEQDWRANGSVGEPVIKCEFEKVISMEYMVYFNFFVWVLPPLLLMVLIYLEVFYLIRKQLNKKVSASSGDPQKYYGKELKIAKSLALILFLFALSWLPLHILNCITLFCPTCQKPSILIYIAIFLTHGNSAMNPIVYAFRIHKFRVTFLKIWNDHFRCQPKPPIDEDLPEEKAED
experimental-readout: Ki

Observe how each entry below is paired with its result.
[[record]]
molecule = "Cn1c(=O)[nH]c(=O)c2c1nc1n2CCN(Cc2ccccc2Br)C1 [Compound 13a]"
experimental_readout = "Ki"
observed_result = "> 1500 nM"

[[record]]
molecule = "CCn1c(=O)c2c(nc3n2CCN(Cc2ccccc2C(F)(F)F)C3)n(CC)c1=O [Compound 15f]"
experimental_readout = "Ki"
observed_result = "51.4 nM"

[[record]]
molecule = "CCn1c(=O)c2c(nc3n2CCN(Cc2cccc(Cl)c2)C3)n(C)c1=O [Compound 14i]"
experimental_readout = "Ki"
observed_result = "53 nM"

[[record]]
molecule = "CCn1c(=O)c2c(nc3n2CCN(Cc2cc(F)c(F)c(F)c2)C3)n(CC)c1=O [Compound 15r]"
experimental_readout = "Ki"
observed_result = "> 1500 nM"

[[record]]
molecule = "Cn1c(=O)[nH]c(=O)c2c1nc1n2CCN(CCc2ccc(Cl)cc2Cl)C1 [Compound 13f]"
experimental_readout = "Ki"
observed_result = "> 1500 nM"

[[record]]
molecule = "Cn1c(=O)[nH]c(=O)c2c1nc1n2CCN(CCc2cccc(C(F)(F)F)c2)C1 [Compound 13e]"
experimental_readout = "Ki"
observed_result = "> 1500 nM"


Kindly review the next molecule as well.
Record request: Ki value, item Cn1c(=O)[nH]c(=O)c2c1nc1n2CCN(CCc2ccc(Cl)c(Cl)c2)C1 [Compound 13g] > 1500 nM

---

- tested-target: rat A2A AR (Rattus norvegicus, UniProt P30543)
- Construct: A2A ARs of rat brain striatal membrane preparations; from tissue; host or cells: rat brain striatum membranes
- Sequence (P30543 whole entry): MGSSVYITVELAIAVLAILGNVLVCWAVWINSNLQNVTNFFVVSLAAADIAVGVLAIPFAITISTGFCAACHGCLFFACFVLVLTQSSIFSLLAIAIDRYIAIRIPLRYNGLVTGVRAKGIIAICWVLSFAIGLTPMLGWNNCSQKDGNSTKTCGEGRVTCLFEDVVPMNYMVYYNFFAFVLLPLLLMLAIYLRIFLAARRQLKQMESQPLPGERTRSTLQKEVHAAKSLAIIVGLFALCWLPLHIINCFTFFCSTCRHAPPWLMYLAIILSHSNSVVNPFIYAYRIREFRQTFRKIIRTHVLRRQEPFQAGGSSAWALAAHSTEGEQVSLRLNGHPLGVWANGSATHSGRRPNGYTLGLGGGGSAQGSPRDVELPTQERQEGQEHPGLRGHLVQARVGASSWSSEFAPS
- assay-summary: Radioligand binding assay at rat A2A AR (rat brain striatum) vs. [^3H]MSX-2
- setup-conditions: rat (r); rat brain striatum; n = 3; read-out: Ki ± SEM, A2A vs. [^3H]MSX-2
- Method: Membrane preparations and radioligand binding assays at rat A1 (rat brain cortex) and rat A2A ARs (rat brain striatum) were performed as previously described (Ozola et al., [2003]; Alnouri et al., [2015]). […] The synthesized tetrahydropyrazino[2,1-f ]purinediones 13–20 were evaluated in radioligand binding assays for their affinity to A1 ARs of rat brain cortical membrane and to A2A ARs of rat brain striatal membrane preparations. […]
experimental-readout: Ki (nM)

[[record]]
compound = "CCn1c(=O)c2c(nc3n2CCN(Cc2cccc(C(F)(F)F)c2F)C3)n(C)c1=O [Compound 14l]"
experimental_readout = "Ki"
result_unit = "nM"
observed_result = 667

[[record]]
compound = "C#CCn1c(=O)c2c(nc3n2CCN(Cc2ccccc2OC)C3)n(CC)c1=O [Compound 20f]"
experimental_readout = "Ki"
result_unit = "nM"
observed_result = 1200

[[record]]
compound = "CCn1c(=O)c2c(nc3n2CCN(Cc2cccc(Br)c2)C3)n(C)c1=O [Compound 14b]"
experimental_readout = "Ki"
result_unit = "nM"
observed_result = 1140


P. C#CCn1c(=O)c2c(nc3n2CCN(Cc2ccccc2)C3)n(CC)c1=O [Compound 20e]
Q. C#CCn1c(=O)c2c(nc3n2CCN(c2ccc(OC)c(OC)c2)C3)n(CC)c1=O [Compound 20d]
// returns P or Q , whichever has the lower Ki Give the label under which the chosen entry appears. P
